// provenance: patent US11401279B2

# Tested on: U2OS/PD-L1 cells and Jurkat-PD-1-SHP cells
# test_details: Src homology region 2 domain-containing phosphatase (SHP) assay
# Assay type: cell-based
# conditions_used: Homo sapiens, U2OS; PathHunter chemiluminescence, 2 hours
pIC50: −log10 of the molar value.
measured_metric: pIC50

[[record]]
compound = "Cc1c(NC(=O)c2nc3c(n2C)CCN(C)C3)cccc1-c1cccc(NC(=O)c2nc3c(n2C)CCN(CC24CCC(C(=O)O)(CC2)C4)C3)c1Cl [Example 119, reference compound]"
measured_metric = "pIC50"
quantitative_result = 8.31

[[record]]
compound = "CC(C)N1CCc2c(nc(C(=O)Nc3cccc(-c4cccc(NC(=O)c5nc6c(n5C)CCN(CC57CCC(C(=O)O)(CC5)C7)C6)c4Cl)c3Cl)n2C)C1 [Example 177, reference compound]"
measured_metric = "pIC50"
quantitative_result = 8.24

[[record]]
compound = "Cn1c(C(=O)Nc2cccc(-c3cccc(NC(=O)c4nc5c(n4C)CCN(C4CCOCC4)C5)c3Cl)c2Cl)nc2c1CCN(CC13CCC(C(=O)O)(CC1)C3)C2 [Example 179, reference compound]"
measured_metric = "pIC50"
quantitative_result = 7.21

[[record]]
compound = "Cc1c(Nc2nc(C(F)F)nc3cc(CN4CC(C)(O)C4)cnc23)cccc1-c1cccc(NC(=O)c2nc3c(n2C)CCN(CCC24CCC(C(=O)O)(CC2)C4)C3)c1Cl [Example 14]"
measured_metric = "pIC50"
quantitative_result = 8.52

[[record]]
compound = "Cc1c(Nc2nc(C(F)F)nc3cc(CN4CC[C@H](O)C4)cnc23)cccc1-c1cccc(NC(=O)c2nc3c(n2C)CCN(CCC24CCC(C(=O)O)(CC2)C4)C3)c1Cl [Example 3]"
measured_metric = "pIC50"
quantitative_result = 8.60

[[record]]
compound = "Cc1c(NC(=O)c2nc3c(n2C)CCN(CCC24CCC(C(=O)O)(CC2)C4)C3)cccc1-c1cccc(Nc2nc(C(F)F)nc3cc(CN4CC[C@@H](O)C4)cnc23)c1C [Example 5]"
measured_metric = "pIC50"
quantitative_result = 8.40

[[record]]
compound = "Cc1c(Nc2nc(C(F)F)nc3cc(CN[C@@H]4CCC[C@@H]4O)cnc23)cccc1-c1cccc(NC(=O)c2nc3c(n2C)CCN(CCC24CCC(C(=O)O)(CC2)C4)C3)c1Cl [Example 9]"
measured_metric = "pIC50"
quantitative_result = 8.40

[[record]]
compound = "C[C@@H](O)CN1CCc2c(nc(C(=O)Nc3cccc(-c4cccc(NC(=O)c5nc6c(n5C)CCN(CC57CCC(C(=O)O)(CC5)C7)C6)c4Cl)c3Cl)n2C)C1 [Example 182, reference compound]"
measured_metric = "pIC50"
quantitative_result = 8.36

[[record]]
compound = "Cc1c(NC(=O)c2nc3c(n2C)CCN(CC24CCC(C(=O)O)(CC2)C4)C3)cccc1-c1cccc(NC(=O)c2nc3c(n2C)CCN(C)C3)c1Cl [Example 102]"
measured_metric = "pIC50"
quantitative_result = 8.31

[[record]]
compound = "Cc1c(Nc2nc(C(F)F)nc3cc(CN4CC[C@@](C)(O)C4)cnc23)cccc1-c1cccc(NC(=O)c2nc3c(n2C)CCN(CCC24CCC(C(=O)O)(CC2)C4)C3)c1Cl [Example 2]"
measured_metric = "pIC50"
quantitative_result = 8.41

[[record]]
compound = "Cc1c(Nc2nc(C(F)F)nc3cc(CN4CC(O)C4)cnc23)cccc1-c1cccc(NC(=O)c2nc3c(n2C)CCN(CCC24CCC(C(=O)O)(CC2)C4)C3)c1Cl [Example 13]"
measured_metric = "pIC50"
quantitative_result = 8.52

